Species on record: Rattus norvegicus
Assay comment: Open TG-GATES - Regimen: Daily Repeat
Assay type: toxicity, organism-based, Sprague-Dawley
Parameters: regimen Daily Repeat, gender Male, age 6 weeks
Condition label: in vivo, po, 0 mg/kg, […], tissue Plasma, route gavage, dose level Control, time 7 day
Decision: LDH beneath 100 IU/L gives fulfilled; LDH meeting or exceeding 100 IU/L gives not fulfilled.

compound="CC(C)OC(=O)C(C)(C)Oc1ccc(C(=O)c2ccc(Cl)cc2)cc1 [FENOFIBRATE]" discrete_label=fulfilled
compound="CCOC(=O)CCC(=O)O[C@H]1[C@H](O[C@@H]2[C@@H](C)[C@H](O[C@H]3C[C@@](C)(OC)[C@@H](O)[C@H](C)O3)[C@@H](C)C(=O)O[C@H](CC)[C@@](C)(O)[C@H](O)[C@@H](C)C(=O)[C@H](C)C[C@@]2(C)O)O[C@H](C)C[C@@H]1N(C)C [ERYTHROMYCIN ETHYLSUCCINATE]" discrete_label="not fulfilled"
compound=CC1=C(/C=C/C(C)=C/C=C/C(C)=C/CO)C(C)(C)CCC1 discrete_label="not fulfilled"
compound=COC1=CC(=O)C[C@@H](C)[C@]12Oc1c(Cl)c(OC)cc(OC)c1C2=O discrete_label="not fulfilled"
compound=NC(N)=Nc1nc(CSCCC(N)=NS(N)(=O)=O)cs1 discrete_label="not fulfilled"
compound=NNC(=O)c1ccncc1 discrete_label="not fulfilled"
compound="CCOc1ccc(NC(=O)CC(C)O)cc1 (stereo not drawn)" discrete_label=fulfilled

----------
Known Bas of a selection of molecules
Organism: Rattus norvegicus
Assay comment: Open TG-GATES - Regimen: Single
Assay type: toxicity, organism-based, Sprague-Dawley
Parameters: regimen Single, gender Male, age 6 weeks
Condition label: in vivo, po, 0 mg/kg, 3 h, tissue Blood, route gavage, dose level Control
Measured property: Bas (%)

molecule="NNC(=O)c1ccncc1 [ISONIAZID]" data_value=0
molecule="CN(C)CCCN1c2ccccc2CCc2ccc(Cl)cc21 [CLOMIPRAMINE]" data_value=0.4
molecule="CN1C(=O)CN=C(c2ccccc2)c2cc(Cl)ccc21 [DIAZEPAM]" data_value=0
molecule="COc1cc2c(c(OC)c1OC)-c1ccc(OC)c(=O)cc1[C@@H](NC(C)=O)CC2 [COLCHICINE]" data_value=0
molecule="Cc1ccc(C)c(OCCCC(C)(C)C(=O)O)c1 [GEMFIBROZIL]" data_value=0
molecule="COC1=CC(=O)C[C@@H](C)[C@]12Oc1c(Cl)c(OC)cc(OC)c1C2=O [GRISEOFULVIN]" data_value=0
molecule="CCOc1ccc(NC(=O)CC(C)O)cc1 (stereo unspecified) [BUCETIN]" data_value=0
molecule="CN(C)CCCN1c2ccccc2CCc2ccccc21 [IMIPRAMINE]" data_value=0.2
molecule="CC/C(=C(\\c1ccccc1)c1ccc(OCCN(C)C)cc1)c1ccccc1 [TAMOXIFEN]" data_value=0
molecule="C[C@@H]1C[C@H]2[C@@H]3CCC4=CC(=O)C=C[C@]4(C)[C@@]3(F)[C@@H](O)C[C@]2(C)[C@@]1(O)C(=O)CO [DEXAMETHASONE]" data_value=0
molecule="CCCNC(=O)NS(=O)(=O)c1ccc(Cl)cc1 [CHLORPROPAMIDE]" data_value=0.4

----------
Organism: Rattus norvegicus
Assay comment: Open TG-GATES - Regimen: Single
Assay type: toxicity, organism-based, Sprague-Dawley
Design: regimen Single, gender Male, age 6 weeks
Condition label: in vivo, po, 0 mg/kg, 6 h, tissue Blood, route gavage, dose level Control
Reported MCHC values for the following compounds.
Measured property: MCHC (%)

compound="NC(N)=Nc1nc(CSCCC(N)=NS(N)(=O)=O)cs1 [FAMOTIDINE]" measured_property=MCHC data_value=35.7
compound="COc1cc2c(c(OC)c1OC)-c1ccc(OC)c(=O)cc1[C@@H](NC(C)=O)CC2 [COLCHICINE]" measured_property=MCHC data_value=33
compound=CN(C)CCN(Cc1cccs1)c1ccccn1 measured_property=MCHC data_value=32.7
compound="COc1ccc2[nH]c([S+]([O-])Cc3ncc(C)c(OC)c3C)nc2c1 (stereo unspecified) [OMEPRAZOLE]" measured_property=MCHC data_value=34.1
compound="CN(C)CCCN1c2ccccc2CCc2ccccc21 [IMIPRAMINE]" measured_property=MCHC data_value=32.5
compound="COC1=CC(=O)C[C@@H](C)[C@]12Oc1c(Cl)c(OC)cc(OC)c1C2=O [GRISEOFULVIN]" measured_property=MCHC data_value=33.6
compound="C[C@@H]1C[C@H]2[C@@H]3CCC4=CC(=O)C=C[C@]4(C)[C@@]3(F)[C@@H](O)C[C@]2(C)[C@@]1(O)C(=O)CO [DEXAMETHASONE]" measured_property=MCHC data_value=32.9
compound="CCCNC(=O)NS(=O)(=O)c1ccc(Cl)cc1 [CHLORPROPAMIDE]" measured_property=MCHC data_value=32.6
compound="CN1C(=O)CN=C(c2ccccc2)c2cc(Cl)ccc21 [DIAZEPAM]" measured_property=MCHC data_value=33.1
compound="Cc1ccc(C)c(OCCCC(C)(C)C(=O)O)c1 [GEMFIBROZIL]" measured_property=MCHC data_value=34.3
compound="NNC(=O)c1ccncc1 [ISONIAZID]" measured_property=MCHC data_value=35.8

----------
Species on record: Rattus norvegicus
Assay comment: Open TG-GATES - Regimen: Single
Type: toxicity, organism-based, Sprague-Dawley
Parameters: regimen Single, gender Male, age 6 weeks
Condition label: in vivo, po, 100 mg/kg, 9 h, tissue Kidney, route gavage, dose level High
Here, each record is paired with measured KIDNEY_TOTAL data.
Measured property: KIDNEY_TOTAL (g)

smiles_repr=CN(C)CCCN1c2ccccc2CCc2ccc(Cl)cc21 unit_info=g data_value=2
smiles_repr=CC1=C(/C=C/C(C)=C/C=C/C(C)=C/CO)C(C)(C)CCC1 unit_info=g data_value=1.9
smiles_repr=CN(C)CCN(Cc1cccs1)c1ccccn1 unit_info=g data_value=1.7
smiles_repr=CN(C)CCCN1c2ccccc2CCc2ccccc21 unit_info=g data_value=1.8

----------
Organism: Rattus norvegicus
Assay comment: Open TG-GATES - Regimen: Daily Repeat
Type: toxicity, organism-based, Sprague-Dawley
Set-up: regimen Daily Repeat, gender Male, age 6 weeks
Condition label: in vivo, po, 0 mg/kg, […], tissue Blood, route gavage, dose level Control, time 14 day
The compounds listed here are annotated with their Ret.
Measured property: Ret (%)

compound="CC(C)OC(=O)C(C)(C)Oc1ccc(C(=O)c2ccc(Cl)cc2)cc1 [FENOFIBRATE]" data_value=4.5
compound="CC1=C(/C=C/C(C)=C/C=C/C(C)=C/CO)C(C)(C)CCC1 [RETINOL]" data_value=5.2
compound=CN(C)CCN(Cc1cccs1)c1ccccn1 data_value=4.2
compound="CCOc1ccc(NC(=O)CC(C)O)cc1 (stereo not drawn) [BUCETIN]" data_value=4.6
compound="NNC(=O)c1ccncc1 [ISONIAZID]" data_value=3.9
compound="NC(N)=Nc1nc(CSCCC(N)=NS(N)(=O)=O)cs1 [FAMOTIDINE]" data_value=4.5
compound="CN(C)CCCN1c2ccccc2CCc2ccccc21 [IMIPRAMINE]" data_value=4.6
compound="CCCNC(=O)NS(=O)(=O)c1ccc(Cl)cc1 [CHLORPROPAMIDE]" data_value=4.5
compound="O=C(CCCN1CCC(O)(c2ccc(Cl)cc2)CC1)c1ccc(F)cc1 [HALOPERIDOL]" data_value=3.7
compound="COc1ccc2[nH]c([S+]([O-])Cc3ncc(C)c(OC)c3C)nc2c1 (stereo not drawn) [OMEPRAZOLE]" data_value=3.9
compound="COC1=CC(=O)C[C@@H](C)[C@]12Oc1c(Cl)c(OC)cc(OC)c1C2=O [GRISEOFULVIN]" data_value=3
compound="CCOC(=O)CCC(=O)O[C@H]1[C@H](O[C@@H]2[C@@H](C)[C@H](O[C@H]3C[C@@](C)(OC)[C@@H](O)[C@H](C)O3)[C@@H](C)C(=O)O[C@H](CC)[C@@](C)(O)[C@H](O)[C@@H](C)C(=O)[C@H](C)C[C@@]2(C)O)O[C@H](C)C[C@@H]1N(C)C [ERYTHROMYCIN ETHYLSUCCINATE]" data_value=5.2
compound="CN1C(=O)CN=C(c2ccccc2)c2cc(Cl)ccc21 [DIAZEPAM]" data_value=4.5

----------
Species: Rattus norvegicus
Assay comment: Open TG-GATES - Regimen: Daily Repeat
Format: toxicity, organism-based, Sprague-Dawley
Design: regimen Daily Repeat, gender Male, age 6 weeks
Condition label: in vivo, po, 100 mg/kg, 72 h, tissue Plasma, route gavage, dose level Low, time 3 day
Assign class by IP: not lower than 8 mg/dL means criterion met; lower than 8 mg/dL means criterion not met.

molecule="COc1ccc2[nH]c([S+]([O-])Cc3ncc(C)c(OC)c3C)nc2c1 (stereo not given) [OMEPRAZOLE]" discrete_label="criterion met"
molecule="CCOC(=O)CCC(=O)O[C@H]1[C@H](O[C@@H]2[C@@H](C)[C@H](O[C@H]3C[C@@](C)(OC)[C@@H](O)[C@H](C)O3)[C@@H](C)C(=O)O[C@H](CC)[C@@](C)(O)[C@H](O)[C@@H](C)C(=O)[C@H](C)C[C@@]2(C)O)O[C@H](C)C[C@@H]1N(C)C [ERYTHROMYCIN ETHYLSUCCINATE]" discrete_label="criterion not met"
molecule="NC(N)=Nc1nc(CSCCC(N)=NS(N)(=O)=O)cs1 [FAMOTIDINE]" discrete_label="criterion not met"
molecule="CCOc1ccc(NC(=O)CC(C)O)cc1 (stereo not given) [BUCETIN]" discrete_label="criterion not met"
